Biological target: Neuropeptide Y receptor type 1 (Homo sapiens, UniProt P25929)
Assay: Tested against neuropeptide Y1 receptors using SK-N-MC human neuroblastoma cells
Format: cell-based
Where a SMILES comes first, the peptide text is derived from it. [ ]: non-standard residue; d: D form. Ahx = NCCCCCC(=O)O
measured_attribute: pKi
Note: pKi values are expressed as the negative base-10 logarithm of concentration in M.

1) CC[C@H](C)[C@H](NC(=O)[C@H](Cc1ccc(O)cc1)NC(=O)[C@H](Cc1cnc[nH]1)NC(=O)[C@H](CCCNC(=N)N)NC(=O)[C@@H](C)NC(=O)[C@@H]1CCCN1C(=O)[C@H](CCCCN)NC(=O)[C@H](CO)NC(=O)[C@@H]1CCCN1C(=O)[C@@H](N)Cc1ccc(O)cc1)C(=O)N[C@@H](CC(N)=O)C(=O)N[C@@H](CC(C)C)C(=O)N[C@H](C(=O)N[C@H](C(=O)N[C@@H](CCCNC(=N)N)C(=O)N[C@@H](CCC(N)=O)C(=O)N[C@@H](CCCNC(=N)N)C(=O)N[C@@H](Cc1ccc(O)cc1)C(=O)O)[C@@H](C)O)[C@@H](C)CC	6.54

Okay, now this compound:
Per the record, CC[C@H](C)[C@H](NC(=O)[C@H](Cc1ccc(O)cc1)NC(=O)[C@H](Cc1cnc[nH]1)NC(=O)[C@H](CCCNC(=N)N)NC(=O)CCCCCNC(=O)[C@H](CCCCN)NC(=O)[C@H](CO)NC(=O)[C@@H]1CCCN1C(=O)[C@@H](N)Cc1ccc(O)cc1)C(=O)N[C@@H](CC(N)=O)C(=O)N[C@@H](CC(C)C)C(=O)N[C@H](C(=O)N[C@H](C(=O)N[C@@H](CCCNC(=N)N)C(=O)N[C@@H](CCC(N)=O)C(=O)N[C@@H](CCCNC(=N)N)C(=O)N[C@@H](Cc1ccc(O)cc1)C(=O)O)[C@@H](C)O)[C@@H](C)CC (H-YPSK[Ahx]RHYINLITRQRY-OH) has pKi of 6.58

* * *

Target: Neuropeptide Y receptor type 2 (Homo sapiens, UniProt P49146)
Sequence (P49146 whole entry): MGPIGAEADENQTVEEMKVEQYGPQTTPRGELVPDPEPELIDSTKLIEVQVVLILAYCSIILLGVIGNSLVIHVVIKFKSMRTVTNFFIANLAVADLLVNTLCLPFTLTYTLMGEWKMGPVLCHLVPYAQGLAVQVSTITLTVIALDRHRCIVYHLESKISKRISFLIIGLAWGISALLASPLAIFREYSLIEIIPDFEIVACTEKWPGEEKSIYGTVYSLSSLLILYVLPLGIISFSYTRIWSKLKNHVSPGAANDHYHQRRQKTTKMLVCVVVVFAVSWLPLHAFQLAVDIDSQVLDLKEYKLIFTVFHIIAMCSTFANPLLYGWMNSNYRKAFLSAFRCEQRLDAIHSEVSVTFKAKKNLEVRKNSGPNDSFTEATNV
measured_attribute: pKi
Note: pKi values are expressed as the negative base-10 logarithm of concentration in M.

Solved cases below.
1. CC[C@H](C)[C@H](NC(=O)[C@H](CC(C)C)NC(=O)[C@H](CC(N)=O)NC(=O)[C@@H](NC(=O)[C@H]1CNC(=O)CC[C@@H](NC(=O)[C@@H](N)Cc2ccc(O)cc2)C(=O)N[C@@H](CO)C(=O)N[C@@H](CCCCN)C(=O)N2CCC[C@H]2C(=O)N[C@H](C)C(=O)N[C@@H](CCCN=C(N)N)C(=O)N[C@@H](Cc2c[nH]cn2)C(=O)N1)[C@@H](C)CC)C(=O)N[C@H](C(=O)N[C@@H](CCCN=C(N)N)C(=O)N[C@@H](CCC(N)=O)C(=O)N[C@@H](CCCN=C(N)N)C(=O)N[C@@H](Cc1ccc(O)cc1)C(N)=O)[C@@H](C)O	8.96
2. CC[C@H](C)[C@H](NC(=O)[C@H](CC(C)C)NC(=O)[C@H](CC(N)=O)NC(=O)[C@@H](NC(=O)[C@H]1CNC(=O)CC[C@H](NC(=O)[C@@H](N)Cc2ccc(O)cc2)C(=O)N[C@@H](CO)C(=O)N[C@@H](CCCCN)C(=O)N2CCC[C@H]2C(=O)NCC(=O)N[C@@H](CCCN=C(N)N)C(=O)N[C@@H](Cc2c[nH]cn2)C(=O)N1)[C@@H](C)CC)C(=O)N[C@H](C(=O)N[C@@H](CCCN=C(N)N)C(=O)N[C@@H](CCC(N)=O)C(=O)N[C@@H](CCCN=C(N)N)C(=O)N[C@@H](Cc1ccc(O)cc1)C(N)=O)[C@@H](C)O	9.52

Okay, now this molecule:
Per the record, "CC[C@H](C)[C@H](NC(=O)[C@H](CC(C)C)NC(=O)[C@H](CC(N)=O)NC(=O)[C@@H](NC(=O)[C@H]1CNC(=O)CC[C@H](NC(=O)[C@@H](N)Cc2ccc(O)cc2)C(=O)N[C@@H](CO)C(=O)N[C@@H](CCCCN)C(=O)NCCCCCC(=O)N[C@@H](CCCN=C(N)N)C(=O)N[C@@H](Cc2c[nH]cn2)C(=O)N1)[C@@H](C)CC)C(=O)N[C@H](C(=O)N[C@@H](CCCN=C(N)N)C(=O)N[C@@H](CCC(N)=O)C(=O)N[C@@H](CCCN=C(N)N)C(=O)N[C@@H](Cc1ccc(O)cc1)C(N)=O)[C@@H](C)O" has pKi of 8.64

* * *

Biological target: Neuropeptide Y receptor type 1 (Homo sapiens, UniProt P25929)
Assay: Tested against neuropeptide Y1 receptors using SK-N-MC human neuroblastoma cells
Format: cell-based
Settings: sk-n-mc
measured_attribute: Ki (nM)
Give your result in nM as a bare value.

Per the record, "CC[C@H](C)[C@H](NC(=O)[C@H](CC(C)C)NC(=O)[C@H](CC(N)=O)NC(=O)[C@@H](NC(=O)[C@H]1CNC(=O)CC[C@@H](NC(=O)[C@@H](N)Cc2ccc(O)cc2)C(=O)N[C@@H](CO)C(=O)N[C@@H](CCCCN)C(=O)N2CCC[C@H]2C(=O)N[C@H](C)C(=O)N[C@@H](CCCN=C(N)N)C(=O)N[C@@H](Cc2c[nH]cn2)C(=O)N1)[C@@H](C)CC)C(=O)N[C@H](C(=O)N[C@@H](CCCN=C(N)N)C(=O)N[C@@H](CCC(N)=O)C(=O)N[C@@H](CCCN=C(N)N)C(=O)N[C@@H](Cc1ccc(O)cc1)C(N)=O)[C@@H](C)O" has Ki of 230

* * *

Ki by entry:
Molecular target: Neuropeptide Y receptor type 1 (Homo sapiens, UniProt P25929)
Sequence (P25929 whole entry): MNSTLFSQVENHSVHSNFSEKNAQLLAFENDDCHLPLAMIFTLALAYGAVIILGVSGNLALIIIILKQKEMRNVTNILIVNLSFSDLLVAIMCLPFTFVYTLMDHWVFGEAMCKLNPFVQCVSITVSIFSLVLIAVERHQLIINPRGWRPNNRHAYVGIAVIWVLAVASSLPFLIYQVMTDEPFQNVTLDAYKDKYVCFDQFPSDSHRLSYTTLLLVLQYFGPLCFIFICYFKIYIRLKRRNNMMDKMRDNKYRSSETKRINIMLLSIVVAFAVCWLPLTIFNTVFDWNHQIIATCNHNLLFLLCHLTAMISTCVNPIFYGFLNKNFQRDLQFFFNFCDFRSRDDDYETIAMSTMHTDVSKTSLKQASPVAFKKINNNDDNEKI
Experiment: Tested against neuropeptide Y1 receptors using SK-N-MC human neuroblastoma cells
Assay type: cell-based
Conditions: sk-n-mc
Give your result in nM as a bare value.

1. CC[C@H](C)[C@H](NC(=O)[C@H](CC(C)C)NC(=O)[C@H](CC(N)=O)NC(=O)[C@@H](NC(=O)[C@H]1CNC(=O)CC[C@H](NC(=O)[C@@H](N)Cc2ccc(O)cc2)C(=O)N[C@@H](CO)C(=O)N[C@@H](CCCCN)C(=O)NCCCCCC(=O)N[C@@H](CCCN=C(N)N)C(=O)N[C@@H](Cc2c[nH]cn2)C(=O)N1)[C@@H](C)CC)C(=O)N[C@H](C(=O)N[C@@H](CCCN=C(N)N)C(=O)N[C@@H](CCC(N)=O)C(=O)N[C@@H](CCCN=C(N)N)C(=O)N[C@@H](Cc1ccc(O)cc1)C(N)=O)[C@@H](C)O	220

Okay, now this molecule:
"CC[C@H](C)[C@H](NC(=O)[C@H](CC(C)C)NC(=O)[C@H](CC(N)=O)NC(=O)[C@@H](NC(=O)[C@H]1CNC(=O)CC[C@H](NC(=O)[C@@H](N)Cc2ccc(O)cc2)C(=O)N[C@@H](CO)C(=O)N[C@@H](CCCCN)C(=O)N2CCC[C@H]2C(=O)NCC(=O)N[C@@H](CCCN=C(N)N)C(=O)N[C@@H](Cc2c[nH]cn2)C(=O)N1)[C@@H](C)CC)C(=O)N[C@H](C(=O)N[C@@H](CCCN=C(N)N)C(=O)N[C@@H](CCC(N)=O)C(=O)N[C@@H](CCCN=C(N)N)C(=O)N[C@@H](Cc1ccc(O)cc1)C(N)=O)[C@@H](C)O" tested on Neuropeptide Y receptor type 1 (Homo sapiens, UniProt P25929) gave Ki: 130
